Test system: NCI-H226
protocol: NCI tumour cell line growth inhibition, 48 h
Activity calls are given as the source filed them. Rule as the data show it: active = GI50 up to about 1.1 µM and inactive = higher. Residues, ends and D or L forms follow the SMILES beside them. *: point of attachment. Boc = CC(C)(C)OC(=O)*; OBn = c1ccc(CO*)cc1
Hi there, I'd appreciate the recorded GI50 for every entry that follows.

Q: Please report the recorded GI50 for `N#CC(CCN1CCC(Nc2ccccc2)(c2nnnn2C2CCCCC2)CC1)(c1ccccc1)c1ccccc1` .
Result: > 100 µM (inactive)

Q: Let us now turn to `COC(=O)c1cc(O)nc(O)n1`
Result: > 100 µM (inactive)

Q: Also CC1N=C(c2ccccc2)OC1=O (centres undefined) ?
Result: > 100 µM (inactive)

Q: Now consider `CCCCNC1=C(C(=O)OCC)C(=O)CO1` .
Result: > 100 µM (inactive)

Q: Entry to check: CCOC(=O)C1OC(=O)CC1C1(C(=O)OCC)C=CC(=O)O1 (centres undefined)
Result: > 100 µM (inactive)

Q: Let us now turn to `O=C1/C(=C/c2cccs2)NC(=S)N1CN1CCOCC1`
Result: > 100 µM (inactive)

Q: Next: `N/N=C1\CCCc2c1no[n+]2[O-]`
Result: > 100 µM (inactive)

Q: Please do the same for `Nc1c(S(=O)(=O)c2ccc(Cl)cc2)c2nc3ccccc3nc2n2ccnc12` as well.
Result: 18.3 µM (inactive)

Q: And the next one, CCOC(=O)NC(Nc1ccc(F)c(F)c1)(C(=O)OCC)C(F)(F)F (centres undefined) ?
Result: > 100 µM (inactive)

Q: Also, Cc1ccc(NC(=O)CCC(=O)C2CC(=O)CCC2=O)cc1C (centres undefined) please.
Result: > 100 µM (inactive)

Q: Now consider `CCOC(=O)C(=O)Nc1c(C(C)C)cccc1C(C)C` .
Result: > 100 µM (inactive)

Q: // query: COc1cccc(C2=NC(C(C)C)CO2)c1OC (centres undefined)
Result: > 100 µM (inactive)

Q: Then what about the molecule CC(NC(=O)CNC(=O)OC(C)(C)C)C(=O)NC(Cc1ccccc1)C(=O)OCc1ccccc1 (stereo not drawn) (Boc-Gly-Ala-Phe-OBn; configuration not given here) ?
Result: 75.7 µM (inactive)

Q: Entry O=C1OCC=C1COC1OC(CO)C(O)C(O)C1O (centres undefined) please
Result: > 100 µM (inactive)

Q: Param item: `O=C(Oc1cncc(Cl)c1)c1cc2ccccc2sc1=O`
Result: 22.4 µM (inactive)

Q: Now consider [O-][S+]1c2ccccc2N=C(c2ccc3ccccc3c2)CC1c1ccccc1F (centres undefined) and answer again.
Result: 82.2 µM (inactive)

Q: Same question, `CCOC(=O)C1=C(NC(C)(C)C)OC/C1=N\NC(=O)Cc1ccccc1` this time
Result: > 100 µM (inactive)

Q: Same read-out for `CC(C)=CCOc1cc(NC(=S)c2ccsc2C)ccc1Cl` ?
Result: 13.5 µM (inactive)

Q: Request: `OCn1nc2c(C3OCCO3)cc3ccccc3n2c1=S`
Result: > 100 µM (inactive)

Q: Check `NC(=O)NC(=O)c1cnccn1` too.
Result: 54.1 µM (inactive)

Q: Request: `CC(=O)ONC(C(=O)C(C)(C)C)C(=O)C(C)(C)C`
Result: > 100 µM (inactive)

Q: Request: O=C(O)C1(c2ccccc2)CCCNCC1 (centres undefined)
Result: > 100 µM (inactive)

Q: Now give it for CCOC(CI)O[C@@H]1C=C[C@H](OC(C)=O)C1 (some centres undefined) too.
Result: > 100 µM (inactive)

Q: Now try `COc1cc(/C=C/c2cc(/C=C/c3ccc(O)c(OC)c3)oc(=O)c2)ccc1O` .
Result: 10.5 µM (inactive)
